Sourced from ChEMBL document CHEMBL3779788

Test: Cytotoxicity against human A549 cells at 30 ug/mL by MTT assay
Format: cell-based
Settings: read-out: INH
Test Readout: cytotoxicity at 30 ug/mL (%)

Molecule | Unit Of Measurement | Val
Cc1ccc(N2C(=O)CSC2c2ccc([N+](=O)[O-])cc2)cc1 (stereo unspecified) | % | -10.3
COc1ccc(C2SCC(=O)N2c2ccc(Cl)cc2)cc1 (stereo unspecified) | % | 0
O=C1CSC(c2ccccc2)N1c1ccc(Br)cc1 (stereo unspecified) | % | 0
O=C1CSC(c2ccccc2)N1c1ccc(Cl)cc1 (stereo unspecified) | % | 13.4
COc1ccc(N2C(=O)CSC2c2ccccc2)cc1 (stereo unspecified) | % | 4.4
O=C1CSC(c2ccc(Cl)cc2)N1c1ccccc1 (stereo unspecified) | % | -20.4
COc1ccc(C2SCC(=O)N2c2ccccc2)cc1 (stereo unspecified) | % | -4.3
O=C1CSC(c2ccc(Cl)cc2)N1c1ccc(Cl)cc1 (stereo unspecified) | % | 0
O=C1CSC(c2ccc(Br)cc2)N1c1ccccc1 (stereo unspecified) | % | 0
Cc1ccc(C2SCC(=O)N2c2ccccc2)cc1 (stereo unspecified) | % | 27.8
O=C1CSC(c2ccc(F)cc2)N1c1ccccc1 (stereo unspecified) | % | 0
Cc1ccc(N2C(=O)CSC2c2ccccc2)cc1 (stereo unspecified) | % | -15.9
O=C1CSC(c2ccccc2)N1c1ccc(F)cc1 (stereo unspecified) | % | 11
Cc1ccc(N2C(=O)CSC2c2ccc(Cl)cc2)cc1 (stereo unspecified) | % | 0
O=C1CSC(c2ccccc2)N1c1ccccc1 (stereo unspecified) | % | 0
Cc1ccc(C2SCC(=O)N2c2ccc(F)cc2)cc1 (stereo unspecified) | % | -11.4
O=C1CSC(c2ccc([N+](=O)[O-])cc2)N1c1ccccc1 (stereo unspecified) | % | 8.8
O=C1CSC(c2ccc(O)cc2)N1c1ccc(Cl)cc1 (stereo unspecified) | % | 0
Cc1ccc(C2SCC(=O)N2c2ccc(C)cc2)cc1 (stereo unspecified) | % | -13.4
O=C1CSC(c2ccc(Cl)cc2)N1c1ccc(F)cc1 (stereo unspecified) | % | 0
O=C1CSC(c2ccc(F)cc2)N1c1ccc(Cl)cc1 (stereo unspecified) | % | 4.9

----------
Test system: Bacillus subtilis
Assay: Antibacterial activity against Bacillus subtilis after 18 hrs by broth dilution method
Format: functional, organism-based
Test Readout: MIC

Compound | Test Readout | Val
NC[C@H]1O[C@H](O[C@H]2[C@H](O)[C@@H](O[C@H]3O[C@H](CO)[C@@H](O)[C@H](N)[C@H]3O)[C@H](N)C[C@@H]2N)[C@H](O)[C@@H](O)[C@@H]1O | MIC | 0.25 µg/mL
O=C1CSC(c2ccccc2)N1c1ccc(Cl)cc1 (stereo unspecified) | MIC | > 30 µg/mL
O=C1CSC(c2ccc(F)cc2)N1c1ccccc1 (stereo unspecified) | MIC | > 30 µg/mL
CC1(C)S[C@@H]2[C@H](NC(=O)[C@H](N)c3ccccc3)C(=O)N2[C@H]1C(=O)O | MIC | 5.89 µg/mL
O=C1CSC(c2ccccc2)N1c1ccc(F)cc1 (stereo unspecified) | MIC | > 30 µg/mL
O=C1CSC(c2ccccc2)N1c1ccccc1 (stereo unspecified) | MIC | > 30 µg/mL
COc1ccc(N2C(=O)CSC2c2ccccc2)cc1 (stereo unspecified) | MIC | > 30 µg/mL
Cc1ccc(C2SCC(=O)N2c2ccc(F)cc2)cc1 (stereo unspecified) | MIC | > 30 µg/mL
O=C1CSC(c2ccc(Br)cc2)N1c1ccccc1 (stereo unspecified) | MIC | > 30 µg/mL
O=C1CSC(c2ccc(Cl)cc2)N1c1ccccc1 (stereo unspecified) | MIC | > 30 µg/mL
COc1ccc(C2SCC(=O)N2c2ccccc2)cc1 (stereo unspecified) | MIC | > 30 µg/mL

----------
Experiment: Cytotoxicity against human A549 cells at 3 ug/mL by MTT assay
Assay type: cell-based
Settings: read-out: INH
Test Readout: cytotoxicity at 3 ug/mL (%)

Molecule | Test Readout | Val
O=C1CSC(c2ccccc2)N1c1ccccc1 (stereo unspecified) | cytotoxicity at 3 ug/mL | 0
Cc1ccc(C2SCC(=O)N2c2ccccc2)cc1 (stereo unspecified) | cytotoxicity at 3 ug/mL | -10.3
O=C1CSC(c2ccc([N+](=O)[O-])cc2)N1c1ccccc1 (stereo unspecified) | cytotoxicity at 3 ug/mL | 0.3
O=C1CSC(c2ccccc2)N1c1ccc(Cl)cc1 (stereo unspecified) | cytotoxicity at 3 ug/mL | -12.3
COc1ccc(N2C(=O)CSC2c2ccccc2)cc1 (stereo unspecified) | cytotoxicity at 3 ug/mL | -0.1
O=C1CSC(c2ccc(Br)cc2)N1c1ccccc1 (stereo unspecified) | cytotoxicity at 3 ug/mL | 0
Cc1ccc(N2C(=O)CSC2c2ccccc2)cc1 (stereo unspecified) | cytotoxicity at 3 ug/mL | 0
Cc1ccc(N2C(=O)CSC2c2ccc([N+](=O)[O-])cc2)cc1 (stereo unspecified) | cytotoxicity at 3 ug/mL | -11.3
Cc1ccc(C2SCC(=O)N2c2ccc(F)cc2)cc1 (stereo unspecified) | cytotoxicity at 3 ug/mL | 0
O=C1CSC(c2ccc(Cl)cc2)N1c1ccc(Cl)cc1 (stereo unspecified) | cytotoxicity at 3 ug/mL | 0
O=C1CSC(c2ccccc2)N1c1ccc(Br)cc1 (stereo unspecified) | cytotoxicity at 3 ug/mL | 0
O=C1CSC(c2ccccc2)N1c1ccc(F)cc1 (stereo unspecified) | cytotoxicity at 3 ug/mL | -13.4
COc1ccc(C2SCC(=O)N2c2ccc(Cl)cc2)cc1 (stereo unspecified) | cytotoxicity at 3 ug/mL | -4
COc1ccc(C2SCC(=O)N2c2ccccc2)cc1 (stereo unspecified) | cytotoxicity at 3 ug/mL | 0
O=C1CSC(c2ccc(F)cc2)N1c1ccccc1 (stereo unspecified) | cytotoxicity at 3 ug/mL | 0
O=C1CSC(c2ccc(O)cc2)N1c1ccc(Cl)cc1 (stereo unspecified) | cytotoxicity at 3 ug/mL | 0
Cc1ccc(C2SCC(=O)N2c2ccc(C)cc2)cc1 (stereo unspecified) | cytotoxicity at 3 ug/mL | 8.6
Cc1ccc(N2C(=O)CSC2c2ccc(Cl)cc2)cc1 (stereo unspecified) | cytotoxicity at 3 ug/mL | 1.3
O=C1CSC(c2ccc(Cl)cc2)N1c1ccc(F)cc1 (stereo unspecified) | cytotoxicity at 3 ug/mL | 0
O=C1CSC(c2ccc(Cl)cc2)N1c1ccccc1 (stereo unspecified) | cytotoxicity at 3 ug/mL | -10.3
O=C1CSC(c2ccc(F)cc2)N1c1ccc(Cl)cc1 (stereo unspecified) | cytotoxicity at 3 ug/mL | -7

----------
Assay: Cytotoxicity against human HCT116 cells at 30 ug/mL by MTT assay
Format: cell-based, HCT-116
Settings: read-out: INH
Criterion: cytotoxicity at 30 ug/mL meeting or surpassing 20%. Met: rule met. Not met: rule not met.

Compound | Class Name
O=C1CSC(c2ccccc2)N1c1ccc(Cl)cc1 (stereo unspecified) | rule met
COc1ccc(C2SCC(=O)N2c2ccccc2)cc1 (stereo unspecified) | rule not met
O=C1CSC(c2ccccc2)N1c1ccc(F)cc1 (stereo unspecified) | rule not met
Cc1ccc(N2C(=O)CSC2c2ccccc2)cc1 (stereo unspecified) | rule met
O=C1CSC(c2ccc([N+](=O)[O-])cc2)N1c1ccccc1 (stereo unspecified) | rule met
O=C1CSC(c2ccc(Cl)cc2)N1c1ccccc1 (stereo unspecified) | rule not met
O=C1CSC(c2ccc(Br)cc2)N1c1ccccc1 (stereo unspecified) | rule not met
Cc1ccc(C2SCC(=O)N2c2ccc(F)cc2)cc1 (stereo unspecified) | rule met
O=C1CSC(c2ccccc2)N1c1ccc(Br)cc1 (stereo unspecified) | rule met
O=C1CSC(c2ccc(F)cc2)N1c1ccccc1 (stereo unspecified) | rule met
Cc1ccc(N2C(=O)CSC2c2ccc(Cl)cc2)cc1 (stereo unspecified) | rule met
Cc1ccc(N2C(=O)CSC2c2ccc([N+](=O)[O-])cc2)cc1 (stereo unspecified) | rule not met
Cc1ccc(C2SCC(=O)N2c2ccccc2)cc1 (stereo unspecified) | rule not met
O=C1CSC(c2ccc(Cl)cc2)N1c1ccc(Cl)cc1 (stereo unspecified) | rule not met
O=C1CSC(c2ccc(Cl)cc2)N1c1ccc(F)cc1 (stereo unspecified) | rule met
COc1ccc(N2C(=O)CSC2c2ccccc2)cc1 (stereo unspecified) | rule not met
Cc1ccc(C2SCC(=O)N2c2ccc(C)cc2)cc1 (stereo unspecified) | rule met
O=C1CSC(c2ccccc2)N1c1ccccc1 (stereo unspecified) | rule not met
O=C1CSC(c2ccc(F)cc2)N1c1ccc(Cl)cc1 (stereo unspecified) | rule met
COc1ccc(C2SCC(=O)N2c2ccc(Cl)cc2)cc1 (stereo unspecified) | rule not met

----------
Each record here notes measured inhibition of growth at 10 µg/mL.
Tested on: Mycobacterium tuberculosis
Assay: Antitubercular activity against dormant Mycobacterium tuberculosis H37Ra assessed as growth inhibition at 10 ug/mL by XTT reduction menadione assay
Type: functional
Details: read-out: GI

Compound | Target Or System | Unit Of Measurement | inhibition of growth at 10 µg/mL
COc1ccc(C2SCC(=O)N2c2ccccc2)cc1 (stereo unspecified) | Mycobacterium tuberculosis | % | 74.1
Cc1ccc(N2C(=O)CSC2c2ccc(Cl)cc2)cc1 (stereo unspecified) | Mycobacterium tuberculosis | % | 38.1
Cc1ccc(N2C(=O)CSC2c2ccc([N+](=O)[O-])cc2)cc1 (stereo unspecified) | Mycobacterium tuberculosis | % | -5.4
O=C1CSC(c2ccccc2)N1c1ccccc1 (stereo unspecified) | Mycobacterium tuberculosis | % | 31.7
Cc1ccc(C2SCC(=O)N2c2ccc(C)cc2)cc1 (stereo unspecified) | Mycobacterium tuberculosis | % | -26.4
O=C1CSC(c2ccccc2)N1c1ccc(Cl)cc1 (stereo unspecified) | Mycobacterium tuberculosis | % | 24.2
O=C1CSC(c2ccc(Cl)cc2)N1c1ccc(F)cc1 (stereo unspecified) | Mycobacterium tuberculosis | % | -3.2
O=C1CSC(c2ccc(F)cc2)N1c1ccc(Cl)cc1 (stereo unspecified) | Mycobacterium tuberculosis | % | -14.6
O=C1CSC(c2ccc(Cl)cc2)N1c1ccccc1 (stereo unspecified) | Mycobacterium tuberculosis | % | 76.8
Cc1ccc(N2C(=O)CSC2c2ccccc2)cc1 (stereo unspecified) | Mycobacterium tuberculosis | % | -24.3
O=C1CSC(c2ccc(O)cc2)N1c1ccc(Cl)cc1 (stereo unspecified) | Mycobacterium tuberculosis | % | 10.3
COc1ccc(C2SCC(=O)N2c2ccc(Cl)cc2)cc1 (stereo unspecified) | Mycobacterium tuberculosis | % | 18
O=C1CSC(c2ccc(Cl)cc2)N1c1ccc(Cl)cc1 (stereo unspecified) | Mycobacterium tuberculosis | % | 24.1
Cc1ccc(C2SCC(=O)N2c2ccccc2)cc1 (stereo unspecified) | Mycobacterium tuberculosis | % | 31
O=C1CSC(c2ccccc2)N1c1ccc(F)cc1 (stereo unspecified) | Mycobacterium tuberculosis | % | 31.4
O=C1CSC(c2ccc(Br)cc2)N1c1ccccc1 (stereo unspecified) | Mycobacterium tuberculosis | % | 66.4
O=C1CSC(c2ccc([N+](=O)[O-])cc2)N1c1ccccc1 (stereo unspecified) | Mycobacterium tuberculosis | % | -30.4
O=C1CSC(c2ccccc2)N1c1ccc(Br)cc1 (stereo unspecified) | Mycobacterium tuberculosis | % | -27.5
COc1ccc(N2C(=O)CSC2c2ccccc2)cc1 (stereo unspecified) | Mycobacterium tuberculosis | % | 86
O=C1CSC(c2ccc(F)cc2)N1c1ccccc1 (stereo unspecified) | Mycobacterium tuberculosis | % | 73.2
Cc1ccc(C2SCC(=O)N2c2ccc(F)cc2)cc1 (stereo unspecified) | Mycobacterium tuberculosis | % | -37
